tested on: MCF7; experiment: Antiproliferative activity against human MCF7 cells assessed as reduction in cell viability measured for 48 hrs by MTT assay; format: functional, cell-based; settings: MCF7, 48 h
VALUE_KIND: IC50

Example compounds with recorded IC50:
>  <STRUCTURE>
OCCN1CCC(C2CCN(c3nc(NCc4ccc(F)c(Cl)c4)c4ncn(CC5CC5)c4n3)CC2)CC1

>  <ASSAY_VALUE>
0.43 µM

$$$$
>  <STRUCTURE>
OCCN1CCC(C2CCN(c3nc(NCc4cc(F)cc(F)c4)c4ncn(C5CCCC5)c4n3)CC2)CC1

>  <ASSAY_VALUE>
2.93 µM

$$$$
>  <STRUCTURE>
OCCN1CCC(C2CCN(c3nc(NCc4cccc(F)c4F)c4ncn(C5CCCC5)c4n3)CC2)CC1

>  <ASSAY_VALUE>
2.67 µM

$$$$
>  <STRUCTURE>
CC[C@H](CO)Nc1nc(NCc2ccccc2)c2ncn(C(C)C)c2n1

>  <ASSAY_VALUE>
> 100 µM

$$$$
>  <STRUCTURE>
CC[C@@]1(O)C(=O)OCc2c1cc1n(c2=O)Cc2cc3ccccc3nc2-1

>  <ASSAY_VALUE>
6.39 µM

$$$$

# get_value(readout='IC50', item= CC(C)n1cnc2c(NCc3cccnc3Cl)nc(N3CCC(C4CCN(CCO)CC4)CC3)nc21 )
> 100 µM

IC50 for CC(C)n1cnc2c(NCc3ccc(F)c(F)c3)nc(N3CCC(C4CCN(CCO)CC4)CC3)nc21 ?
3.05 µM

If you can, please state the reported IC50 value of CC(C)n1cnc2c(NCc3ccccn3)nc(N3CCC(C4CCN(CCO)CC4)CC3)nc21 .
44.5 µM

Which IC50 is listed for CC(C)n1cnc2c(NCc3cc(F)cnc3Cl)nc(N3CCC(C4CCN(CCO)CC4)CC3)nc21 ?
6.03 µM

Endpoint output: IC50 of CC(C)n1cnc2c(NCc3ccncc3)nc(N3CCC(C4CCN(CCO)CC4)CC3)nc21 . Value?
10.1 µM

Which IC50 value belongs to OCCN1CCC(C2CCN(c3nc(NCc4ccc(Cl)c(F)c4)c4ncn(C5CCCC5)c4n3)CC2)CC1 ?
2.83 µM

* * *

# pIC50 values compiled below
test system: HepG2; experiment: Antiproliferative activity against human HepG2 cells assessed as reduction in cell viability measured for 48 hrs by MTT assay; type: functional, cell-based; settings: HepG2, 48 h
# pIC50 is unitless: minus log10 of the molar concentration; print number only

// known answers, use as guide
>  <STRUCTURE>
CC(C)n1cnc2c(NCc3ccncc3)nc(N3CCC(C4CCN(CCO)CC4)CC3)nc21

>  <pIC50>
4.23

$$$$
>  <STRUCTURE>
OCCN1CCC(C2CCN(c3nc(NCc4cc(F)cc(F)c4)c4ncn(C5CCCC5)c4n3)CC2)CC1

>  <pIC50>
5.35

$$$$
>  <STRUCTURE>
OCCN1CCC(C2CCN(c3nc(NCc4ccc(F)c(Cl)c4)c4ncn(CC5CC5)c4n3)CC2)CC1

>  <pIC50>
5.77

$$$$
>  <STRUCTURE>
CC(C)n1cnc2c(NCc3ccc(F)c(F)c3)nc(N3CCC(C4CCN(CCO)CC4)CC3)nc21

>  <pIC50>
5.52

$$$$
>  <STRUCTURE>
CC(C)n1cnc2c(NCc3ccccc3)nc(N3CCC(C4CCN(CCO)CC4)CC3)nc21

>  <pIC50>
5.74

$$$$

What value of pIC50 has been recorded for this entry: OCCN1CCC(C2CCN(c3nc(NCc4ccc(Cl)c(F)c4)c4ncn(C5CCCC5)c4n3)CC2)CC1
5.76

So what's the measured pIC50 for this one? OCCN1CCC(C2CCN(c3nc(NCc4cccc(F)c4F)c4ncn(C5CCCC5)c4n3)CC2)CC1
6.60

I would be grateful if you could share the reported pIC50 for CC(C)n1cnc2c(NCc3ccccn3)nc(N3CCC(C4CCN(CCO)CC4)CC3)nc21 .
4.12

Can you look up the measured pIC50 of CC(C)n1cnc2c(NCc3cc(F)cnc3Cl)nc(N3CCC(C4CCN(CCO)CC4)CC3)nc21 for me?
5.16

Data provenance: ChEMBL document CHEMBL5634109
